- target-system: recombinant human 5-LO (Homo sapiens, UniProt P09917)
- experiment-notes: Direct inhibition of 5-LO activity in a cell-free assay (H2DCF-DA fluorescence)
- Format: biochemical
- experimental-context: cell-free, recombinant human 5-LO; 95% confidence interval in brackets
// reported pIC50 per item
pIC50 here is simply -log10 of the concentration when that concentration is written in mol/L.

Worked cases, pIC50 given:
compound	reported-metric	assay-result
CC(C)CC(=O)N(O)C[C@H]1CN(c2ccc(N3CCOCC3)c(F)c2)C(=O)O1 [PH-239]	pIC50	5.33
CCCCCCCC(=O)N(O)C[C@H]1CN(c2ccc(N3CCOCC3)c(F)c2)C(=O)O1 [PH-251]	pIC50	5.80
CCCCC(=O)N(O)C[C@H]1CN(c2ccc(N3CCOCC3)c(F)c2)C(=O)O1 [PH-241]	pIC50	5.48

Q: # query: pIC50 of entry CCCCCCC(=O)N(O)C[C@H]1CN(c2ccc(N3CCOCC3)c(F)c2)C(=O)O1 [PH-249]
Result: 5.72

Q: Need pIC50, item CCCCCC(=O)N(O)C[C@H]1CN(c2ccc(N3CCOCC3)c(F)c2)C(=O)O1 [PH-247]
Result: 5.47

---

- target-system: recombinant human 5-LO (Homo sapiens, UniProt P09917)
- Sequence (P09917 1-674): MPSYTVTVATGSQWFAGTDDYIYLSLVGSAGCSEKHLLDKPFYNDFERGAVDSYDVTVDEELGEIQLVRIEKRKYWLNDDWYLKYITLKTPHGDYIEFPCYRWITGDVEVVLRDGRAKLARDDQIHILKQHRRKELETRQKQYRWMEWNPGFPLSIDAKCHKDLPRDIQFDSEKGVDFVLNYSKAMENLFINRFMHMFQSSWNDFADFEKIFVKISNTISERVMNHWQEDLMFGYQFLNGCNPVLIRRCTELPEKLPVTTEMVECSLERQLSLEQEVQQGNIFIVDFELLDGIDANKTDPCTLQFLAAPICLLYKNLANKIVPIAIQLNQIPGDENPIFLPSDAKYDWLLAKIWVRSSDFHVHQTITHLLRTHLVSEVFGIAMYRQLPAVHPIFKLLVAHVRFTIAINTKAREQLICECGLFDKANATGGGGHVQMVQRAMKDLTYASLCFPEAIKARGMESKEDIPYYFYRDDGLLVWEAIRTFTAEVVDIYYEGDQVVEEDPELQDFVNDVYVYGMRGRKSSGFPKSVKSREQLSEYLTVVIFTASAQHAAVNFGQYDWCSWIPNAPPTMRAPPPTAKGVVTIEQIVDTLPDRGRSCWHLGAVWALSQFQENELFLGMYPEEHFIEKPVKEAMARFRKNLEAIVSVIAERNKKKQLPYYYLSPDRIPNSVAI
- experiment-notes: Direct inhibition of 5-LO activity in a cell-free assay (H2DCF-DA fluorescence)
- Type: biochemical
- experimental-context: read-out: Direct inhibition of 5-LO activity. IC50 (CI); cell-free, recombinant human 5-LO; 95% confidence interval in brackets
reported-metric: pIC50
# reply with the number alone; pIC50 is -log10 of concentration in mol/L

compound	reported-metric	assay-result
CCCCCC(=O)ON(C[C@H]1CN(c2ccc(N3CCOCC3)c(F)c2)C(=O)O1)C(=O)CCCCC [PH-246]	pIC50	4.67

Continue with the next compound.
Q: Need pIC50 of O=C(C1CC1)N(O)C[C@H]1CN(c2ccc(N3CCOCC3)c(F)c2)C(=O)O1 [PH-211] , thanks.
Result: 5.46
